So I've got a bunch of molecules here, and I need their melting point values.

Completed entries (count: 5):
Please report the recorded melting point for `O=[N+]([O-])c1ccc2c(c1)CCCCN2` . 73 to 75 °C

Input `Cc1nc2c(N)nc3ccccc3c2n1CCOCCNC(=O)NC1CCCCC1` 207 to 209 °C

Input `CN(c1ccc([N+](=O)[O-])cc1C(F)(F)F)c1c(Cl)c(Cl)nc(Cl)c1Cl` 152 to 155 °C

Input `CCN1c2ncc(COc3ccc(F)cc3)cc2C(=O)N(C)c2ccc(Cl)nc21` 143 to 144 °C

Input `CC(C)(C)C(=O)NCCc1ccc(O)c(O)c1` 144 to 146 °C

Please give melting point, item by item, for the list that follows.
1. CC(C)(C)c1cc(=S)cc(C(C)(C)C)s1
2. O=C1c2cc3cc(O)ccc3n2CC1CC1CCN(Cc2ccccc2)CC1 (stereo not given)
3. O=[N+]([O-])c1ccc(-c2ccc([N+](=O)[O-])cc2C(F)(F)F)c(C(F)(F)F)c1

162 °C
186 to 188 °C
140 °C

Please give melting point, item by item, for the list that follows.
1. Cc1c(-c2ccc(C(C)C)cc2)oc2c(C(=O)O)cccc2c1=O
2. COC(=O)CS(=O)Cc1cccc(-c2nc(=O)c3ccccc3s2)n1 (stereo not given)

216 to 220 °C
150 to 151 °C

----------
So I've got a bunch of compounds here, and I need their melting point values.

Completed entries (count: 4):
Please report the recorded melting point for `O=C(NCCN1CCN(c2cccc(Cl)c2)CC1)c1nsc2ccccc12` . 115 to 117 °C

Input `COc1cccc(-c2ccc3[nH]c4c(ccc5cc[nH]c54)c3c2)c1` 202 to 205 °C

Input `O=C(CCNC(=O)OCc1ccccc1)NCCSC(=O)c1ccccc1` 115 to 118 °C

Input `COCCc1nc2c(N)nc3c(c2n1CCOCCNS(C)(=O)=O)CCCC3` 151 to 153 °C

Please give melting point, item by item, for the list that follows.
1. CC(=O)c1ccc(CNC(=O)C(F)(F)F)s1
2. Clc1nc(Cl)c2c(n1)CCC2

1: 83 to 84 °C; 2: 77 to 79 °C

----------
Measure: melting point

Please give melting point, item by item, for the list that follows.
1. CCc1nn(Cc2n[nH]c(=O)o2)c(CC)c1Oc1cc(Cl)cc(Cl)c1
2. O=c1c2ccc(Cl)cc2[nH]c2c(=O)n(-c3ccc(Cl)cc3Cl)nc(O)c12

["138 to 142 °C", "342 to 343 °C"]

----------
So I've got a bunch of compounds here, and I need their melting point values.

Completed entries (count: 9):
Please report the recorded melting point for `CCCN(CCCCNc1ncc(CC2CCCCC2)c(=O)[nH]1)c1ccccn1` . 62 to 64 °C

Input `CCOC(=O)Cn1cc(C(=O)NCc2ccc(Cl)cc2Cl)c(OCC)n1` 120 to 121 °C

Input `O=[N+]([O-])c1ccc(C(Cl)Cl)cc1` 44 to 46 °C

Input CC1=C(CC2=CC(=O)C=CC2=O)C(=O)C2C=CC=CC2C1=O (stereo not given) 142 to 144 °C

Input `O=Cc1cc(F)c(O)c(F)c1O` 141 to 143 °C

Input COC(=O)CC(c1ccc(OC)c(OC)c1)N1C(=O)C2C=CCCC2C1=O (stereo not given) 100 to 102 °C

Input CCCCC(CC)n1nnc2c(Nc3c(Br)cc(OC)cc3OC)nc(C)cc21 (stereo not given) 127 to 128 °C

Input COc1cccc(CCNC2(c3ccccc3Cl)C(=O)Nc3ccc(Cl)cc32)c1 (stereo not given) 155 to 160 °C

Input `Cc1cccc2sc(=NC(=O)C(F)(F)F)n(N)c12` 160 to 161 °C

Please find the next compound below.
Please report the recorded melting point for `COc1ccc(CCOc2ccc(C(=O)N/C(=C\c3ccc(OCC(F)F)cc3)C(=O)NCCO)cc2)cc1` . 172 to 174 °C
